- assay-name: AGP1-GFP expression modulators, hit retest, confirmation, cell-based, flow cytometry, S. cerevisiae, cherry picks (AID 2273);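 also: median GFP channel fluorescence over the whole cell population gate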
- condition-details: S. cerevisiae AGP1-GFP strain, 3 h, at 10 µM
Entries and their GFP response, % of DMSO
Kindly answer with a numeric value in %, unit omitted.

# return recorded GFP response, % of DMSO for input `COc1cccc(N=Nc2ccc3cccnc3c2O)c1`
93.2

# return recorded GFP response, % of DMSO for input `COc1ccc(C(=O)NNC(=S)NC(=O)/C=C/c2cccs2)cc1`
121

# return recorded GFP response, % of DMSO for input `N/C(=N\OC(=O)c1ccccc1Cl)c1ccc(Cl)cc1`
77.2

# return recorded GFP response, % of DMSO for input `COc1ccc(C(=O)NC(=S)NNC(=O)c2cnccn2)cc1`
95.2

# return recorded GFP response, % of DMSO for input `COc1ccc(N2C(=O)C(Cl)=C(Nc3ccccc3O)C2=O)cc1`
98.8
